B1: MIA2 (parent)
chain: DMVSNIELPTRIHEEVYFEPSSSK

- Variants of: B1
- experiment_notes: protein stability index of a GFP-peptide fusion (GPS, HEK-293T) (PSI 1-6); higher = more stable;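 note: lentivirally expressed fusions sorted by FACS into six bins by GFP to DsRed ratio, PSI derived from sequencing read proportions per bin multiplied by bin number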
- condition_parameters: c terminus: a fixed tail appended
quantity_name: protein stability index
The response must contain the number and no unit.

Example cases with answers are listed next.
Enquiry: So what does the record say about protein stability index for `E19V` ?
Return: 3.15

Enquiry: So what does the record say about protein stability index for `R11L` ?
Return: 3.94

Enquiry: So what does the record say about protein stability index for `L8Y` ?
Return: 3.52

Enquiry: So what does the record say about protein stability index for `I12M` ?
Return: 3.6

Enquiry: So what does the record say about protein stability index for `V3W` ?
Return: 3.15

Enquiry: So what does the record say about protein stability index for `V3A` ?
Return: 3.79

Enquiry: So what does the record say about protein stability index for `Y17K` ?
Return: 4.27

Enquiry: So what does the record say about protein stability index for `P20D` ?
Return: 4.6

Enquiry: So what does the record say about protein stability index for `S23Q` ?
Return: 4.41

Enquiry: So what does the record say about protein stability index for `K24P` ?
Return: 4.08

Please look at the following variant next.
Enquiry: So what does the record say about protein stability index for `I6W` ?
Return: 3.32
